Catalogue of IC50 values
Target entity: Histone-lysine N-methyltransferase EHMT2 (Homo sapiens, UniProt Q96KQ7)
Sequence (Q96KQ7 whole entry): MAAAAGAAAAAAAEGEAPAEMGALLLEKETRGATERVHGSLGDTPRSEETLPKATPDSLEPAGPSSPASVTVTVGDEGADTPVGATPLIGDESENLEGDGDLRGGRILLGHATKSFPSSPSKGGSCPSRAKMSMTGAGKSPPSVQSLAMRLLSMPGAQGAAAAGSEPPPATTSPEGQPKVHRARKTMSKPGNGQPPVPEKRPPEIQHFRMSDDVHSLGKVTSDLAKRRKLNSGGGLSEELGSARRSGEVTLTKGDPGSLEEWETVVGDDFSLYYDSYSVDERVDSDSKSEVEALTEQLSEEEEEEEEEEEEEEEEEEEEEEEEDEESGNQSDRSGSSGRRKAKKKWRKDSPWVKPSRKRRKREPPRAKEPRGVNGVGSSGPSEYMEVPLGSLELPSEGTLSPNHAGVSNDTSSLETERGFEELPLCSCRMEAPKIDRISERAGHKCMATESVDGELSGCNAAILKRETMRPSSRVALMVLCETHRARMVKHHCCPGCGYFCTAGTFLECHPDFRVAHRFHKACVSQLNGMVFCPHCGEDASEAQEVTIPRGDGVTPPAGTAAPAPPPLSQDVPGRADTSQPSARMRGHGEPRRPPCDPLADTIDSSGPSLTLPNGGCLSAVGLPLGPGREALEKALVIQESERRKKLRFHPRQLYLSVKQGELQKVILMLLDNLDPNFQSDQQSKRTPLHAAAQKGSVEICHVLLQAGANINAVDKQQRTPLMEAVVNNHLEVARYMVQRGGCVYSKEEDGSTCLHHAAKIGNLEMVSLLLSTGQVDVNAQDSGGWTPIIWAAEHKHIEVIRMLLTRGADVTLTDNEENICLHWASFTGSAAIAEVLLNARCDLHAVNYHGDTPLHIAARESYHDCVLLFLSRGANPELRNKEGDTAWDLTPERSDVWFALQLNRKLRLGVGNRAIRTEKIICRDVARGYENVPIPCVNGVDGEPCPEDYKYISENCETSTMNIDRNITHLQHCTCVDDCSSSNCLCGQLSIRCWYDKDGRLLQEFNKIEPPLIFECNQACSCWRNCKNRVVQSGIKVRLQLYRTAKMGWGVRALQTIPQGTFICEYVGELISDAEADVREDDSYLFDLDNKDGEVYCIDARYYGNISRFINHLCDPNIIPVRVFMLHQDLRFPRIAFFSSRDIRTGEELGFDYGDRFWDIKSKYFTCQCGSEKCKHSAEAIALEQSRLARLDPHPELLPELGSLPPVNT
Assay explanation: Inhibition of recombinant His-tagged human G9a expressed in Escherichia coli BL21 (DE3) using biotin-labeled histone H3-20 peptide as substrate incubated for 30 mins in presence of [3H]-SAM cofactor by scintillation proximity assay

Molecule: CNC(=N)N/N=C(/C)c1ccc2oc3ccc(/C(C)=N/NC(=N)NC)cc3c2c1
Unit of measurement: µM
Censoring sign: =
IC50: 4.7

Molecule: Nc1nc(N)c2nc3c(ccc4ccccc43)nc2n1
Unit of measurement: µM
Censoring sign: =
IC50: 81.5

Molecule: N=C(N)c1ccc(Nc2ccc(-c3cc4ccc(C(=N)N)cc4[nH]3)cc2)cc1
Unit of measurement: µM
Censoring sign: =
IC50: 3.7

Molecule: CNCC(=O)NC1=CC2C(=O)c3ccc(NC(=O)CNC)cc3C(=O)C2C=C1 (stereo not given)
Unit of measurement: µM
Censoring sign: >
IC50: 1000

Molecule: c1cc2cc(-c3ccc4oc(C5=NCCN5)cc4c3)[nH]c2cc1C1=NCCN1
Unit of measurement: µM
Censoring sign: =
IC50: 39.7
